Assay: Drug repurposing screens with cells derived from glioblastoma tumor samples (AID 1345199); also: % is scaled to controls: 0 for no effect and ±100 for the full control effect
Settings: GBM patient neurospheres viability, ATP luminescence, 48 h; at 46.1 µM (top of the series); tumour line C
Results filed as inconclusive are left out.
experimental-endpoint: activity, negative = cell killing (%)

[
  {
    "molecule": "C[N+]1([O-])[C@@H]2CC(OC(=O)[C@H](CO)c3ccccc3)C[C@H]1[C@@H]1O[C@@H]12 (stereo partly specified)",
    "measured-result": 30.8
  },
  {
    "molecule": "Oc1cccc[c]1[Hg][Cl]",
    "measured-result": -98.2
  },
  {
    "molecule": "C#CCN1CC(=O)N(COC(=O)C2C(C=C(C)C)C2(C)C)C1=O (stereo unspecified)",
    "measured-result": -15.9
  },
  {
    "molecule": "C=CCC1(C(C)CCC)C(=O)N=C(S)NC1=O (stereo unspecified)",
    "measured-result": -10.6
  },
  {
    "molecule": "OC[C@@H](O)[C@H]1O[C@@H]2O[C@H](C(Cl)(Cl)Cl)O[C@@H]2[C@H]1O",
    "measured-result": -11.5
  },
  {
    "molecule": "C[N+]1(C)CCCCC1COC(=O)C(O)(c1ccccc1)c1ccccc1 (stereo unspecified)",
    "measured-result": -16.5
  },
  {
    "molecule": "ClC=C(Cl)Cl",
    "measured-result": -1.4
  },
  {
    "molecule": "CCC1C(C)=NN=C(c2ccc(OC)c(OC)c2)c2cc(OC)c(OC)cc21 (stereo unspecified)",
    "measured-result": -6.07
  },
  {
    "molecule": "C[C@]12CC[C@H]3[C@@H](CCC4=C(O)C(=O)CC[C@@H]43)[C@@H]1CC[C@@H]2OC(=O)CCC1CCCC1",
    "measured-result": -19.8
  },
  {
    "molecule": "C[C@H]1CC[C@]2(NC1)O[C@H]1C[C@H]3[C@@H]4CC[C@H]5C[C@@H](O)CC[C@]5(C)[C@H]4CC[C@]3(C)[C@H]1[C@@H]2C",
    "measured-result": -9.91
  },
  {
    "molecule": "CCCC(C)(COC(N)=O)COC(=O)NC1CC1 (stereo unspecified)",
    "measured-result": -16.6
  },
  {
    "molecule": "O=P(O)(O)C(Cl)(Cl)P(=O)(O)O",
    "measured-result": -5.59
  },
  {
    "molecule": "O=C(NCNC(=O)NC1C(=O)NC(=O)N1CO)NC1C(=O)NC(=O)N1CO (stereo unspecified)",
    "measured-result": -7.65
  },
  {
    "molecule": "CCCC(=O)OC(C(Cl)(Cl)Cl)P(=O)(OC)OC (stereo unspecified)",
    "measured-result": 7.15
  },
  {
    "molecule": "N#CC1(N2CCCCC2)CCCCC1",
    "measured-result": -18
  },
  {
    "molecule": "OC[C@@H](O)[C@H]1O[C@@H]2O[C@@H](C(Cl)(Cl)Cl)O[C@@H]2[C@H]1O",
    "measured-result": 7.8
  },
  {
    "molecule": "CC(C)[C@@]1(NC(=O)[C@@H]2C[C@@H]3c4cccc5[nH]cc(c45)C[C@H]3N(C)C2)O[C@@]2(O)[C@@H]3CCCN3C(=O)[C@H](Cc3ccccc3)N2C1=O",
    "measured-result": 9.68
  },
  {
    "molecule": "O=C(CCl)c1ccc(Oc2ccc(C(=O)CCl)cc2)cc1",
    "measured-result": -8.36
  },
  {
    "molecule": "C[C@]12CC[C@H]3[C@@H](CC[C@@]45O[C@@H]4C(O)=C(C#N)C[C@]35C)[C@@H]1CC[C@@H]2O",
    "measured-result": -5.72
  },
  {
    "molecule": "O=C1CCCCC1CN1CCCCC1 (stereo unspecified)",
    "measured-result": -15.7
  },
  {
    "molecule": "C[C@]12CC[C@H](OS(=O)(=O)O)CC1=CC[C@@H]1[C@@H]2CC[C@]2(C)C(=O)CC[C@@H]12",
    "measured-result": -15.3
  },
  {
    "molecule": "CNC1(c2ccccc2Cl)CCCCC1=O (stereo unspecified)",
    "measured-result": -5.45
  },
  {
    "molecule": "S=C=S",
    "measured-result": -10.7
  },
  {
    "molecule": "CNC(=O)OCC[N+](C)(C)C",
    "measured-result": -19.7
  },
  {
    "molecule": "C=CC[C@]1(O)CC[C@H]2[C@@H]3CCC4=CCCC[C@@H]4[C@H]3CC[C@@]21C",
    "measured-result": -3.65
  },
  {
    "molecule": "CCC1(CC)C(=O)NC(=O)N(C)C1=O",
    "measured-result": -31.1
  },
  {
    "molecule": "Cc1ccccc1-n1c(CF)nc2ccc(N)cc2c1=O",
    "measured-result": -23.5
  },
  {
    "molecule": "C#CC(C)(O)CC (stereo unspecified)",
    "measured-result": -2.82
  },
  {
    "molecule": "CC(Cc1ccccc1)NC=O (stereo unspecified)",
    "measured-result": -28.9
  },
  {
    "molecule": "CC(=O)OC1CN2CCC1CC2 (stereo unspecified)",
    "measured-result": -1.09
  },
  {
    "molecule": "CCC(C)(S(=O)(=O)CC)S(=O)(=O)CC",
    "measured-result": -8.4
  },
  {
    "molecule": "CCOC(=O)c1ccccc1C(=O)OCC",
    "measured-result": 0.324
  },
  {
    "molecule": "CN1c2ccccc2C(NCCCCCCC(=O)O)c2ccc(Cl)cc2S1(=O)=O (stereo unspecified)",
    "measured-result": -20.5
  },
  {
    "molecule": "CCC1(c2ccccc2)C(=O)NC(=O)N(C(=O)c2ccccc2)C1=O (stereo unspecified)",
    "measured-result": -23.5
  },
  {
    "molecule": "O=C(O)C(Cl)(Cl)Cl",
    "measured-result": 3.74
  },
  {
    "molecule": "CN(C)CCCCCCN(C)C (tested in a mixture with another compound)",
    "measured-result": -16.2
  },
  {
    "molecule": "CC(C)(C)c1cc(O)ccc1O",
    "measured-result": 3.11
  },
  {
    "molecule": "O=C1C[C@@H]2OCC=C3CN4CC[C@]56c7ccccc7N1[C@H]5[C@H]2[C@H]3C[C@H]46",
    "measured-result": 6.33
  },
  {
    "molecule": "C[N+]1([O-])[C@@H]2CC[C@H]1CC(OC(=O)C(CO)c1ccccc1)C2 (stereo partly specified)",
    "measured-result": 21.1
  },
  {
    "molecule": "[2H]C([2H])([2H])[C@H](N)Cc1ccccc1",
    "measured-result": -22.7
  },
  {
    "molecule": "c1ccc2sc(SNC3CCCCC3)nc2c1",
    "measured-result": -8.99
  },
  {
    "molecule": "CC(C)Nc1ccc(Nc2ccccc2)cc1",
    "measured-result": -13.8
  },
  {
    "molecule": "C[N+]1(C)[C@@H]2CC[C@H]1CC(OC(=O)c1c[nH]c3ccccc13)C2 (stereo partly specified)",
    "measured-result": -27.7
  },
  {
    "molecule": "CCC1(c2ccccc2)C(=O)NC(=O)NC1=O",
    "measured-result": 3.61
  },
  {
    "molecule": "CC(=O)O[C@H]1CC[C@H]2[C@@H]3CCC4=CC(=O)CCC4=C3C=C[C@]12C",
    "measured-result": -16.1
  },
  {
    "molecule": "S=C(S)N1CCNCC1",
    "measured-result": -13.9
  }
]

Values compiled from PubChem BioAssay (NCATS).
